target: Epidermal growth factor receptor (Homo sapiens, UniProt P00533); assay: Inhibition of recombinant human GST-tagged EGFR catalytic domain (668 to 1210 residues) expressed in baculovirus expression system using TK-biotin peptide as substrate measured after 10 mins by HTRF assay
Sequence (P00533 whole entry, the tested form may be a part): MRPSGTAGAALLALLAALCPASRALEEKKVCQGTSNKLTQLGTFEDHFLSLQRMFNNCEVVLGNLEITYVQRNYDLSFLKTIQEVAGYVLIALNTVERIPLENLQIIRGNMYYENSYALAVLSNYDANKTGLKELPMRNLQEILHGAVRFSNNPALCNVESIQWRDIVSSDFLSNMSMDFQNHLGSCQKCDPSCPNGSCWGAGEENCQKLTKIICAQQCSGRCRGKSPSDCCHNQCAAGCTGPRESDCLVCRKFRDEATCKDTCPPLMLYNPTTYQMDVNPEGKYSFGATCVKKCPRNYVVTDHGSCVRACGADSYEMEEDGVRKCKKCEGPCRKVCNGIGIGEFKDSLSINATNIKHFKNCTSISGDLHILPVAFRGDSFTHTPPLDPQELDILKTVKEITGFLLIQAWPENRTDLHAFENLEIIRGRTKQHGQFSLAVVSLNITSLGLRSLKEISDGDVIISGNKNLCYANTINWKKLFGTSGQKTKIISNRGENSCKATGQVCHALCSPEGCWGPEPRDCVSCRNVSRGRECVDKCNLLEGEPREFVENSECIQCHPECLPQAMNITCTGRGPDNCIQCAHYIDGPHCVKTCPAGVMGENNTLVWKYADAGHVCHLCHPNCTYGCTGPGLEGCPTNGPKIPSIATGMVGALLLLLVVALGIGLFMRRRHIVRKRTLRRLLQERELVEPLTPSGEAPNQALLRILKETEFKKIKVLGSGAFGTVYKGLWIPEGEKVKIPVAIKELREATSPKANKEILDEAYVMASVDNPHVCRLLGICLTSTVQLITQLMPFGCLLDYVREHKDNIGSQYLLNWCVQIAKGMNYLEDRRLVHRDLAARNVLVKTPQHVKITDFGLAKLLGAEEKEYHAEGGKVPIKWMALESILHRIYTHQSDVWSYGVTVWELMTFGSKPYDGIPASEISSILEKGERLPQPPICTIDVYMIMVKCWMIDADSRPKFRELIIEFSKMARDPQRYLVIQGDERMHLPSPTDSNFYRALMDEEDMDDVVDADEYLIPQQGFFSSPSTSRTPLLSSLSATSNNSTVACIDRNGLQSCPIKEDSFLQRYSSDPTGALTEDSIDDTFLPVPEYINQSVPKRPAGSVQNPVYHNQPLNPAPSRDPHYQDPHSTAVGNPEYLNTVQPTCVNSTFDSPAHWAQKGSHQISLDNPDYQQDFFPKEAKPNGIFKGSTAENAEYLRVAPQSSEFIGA
Readout Name: IC50

Given Smiles: Clc1ccc(/C=N/c2nnc(-c3cccnc3)o2)cc1
Observed Measurement: 1130 nM

// IC50 lookup, key: O=[N+]([O-])c1ccc(/C=N/Nc2nnc(-c3ccncc3)o2)cc1
412 nM

###

Target: Prostaglandin G/H synthase 1 (Ovis aries)
Sequence (P05979 whole entry): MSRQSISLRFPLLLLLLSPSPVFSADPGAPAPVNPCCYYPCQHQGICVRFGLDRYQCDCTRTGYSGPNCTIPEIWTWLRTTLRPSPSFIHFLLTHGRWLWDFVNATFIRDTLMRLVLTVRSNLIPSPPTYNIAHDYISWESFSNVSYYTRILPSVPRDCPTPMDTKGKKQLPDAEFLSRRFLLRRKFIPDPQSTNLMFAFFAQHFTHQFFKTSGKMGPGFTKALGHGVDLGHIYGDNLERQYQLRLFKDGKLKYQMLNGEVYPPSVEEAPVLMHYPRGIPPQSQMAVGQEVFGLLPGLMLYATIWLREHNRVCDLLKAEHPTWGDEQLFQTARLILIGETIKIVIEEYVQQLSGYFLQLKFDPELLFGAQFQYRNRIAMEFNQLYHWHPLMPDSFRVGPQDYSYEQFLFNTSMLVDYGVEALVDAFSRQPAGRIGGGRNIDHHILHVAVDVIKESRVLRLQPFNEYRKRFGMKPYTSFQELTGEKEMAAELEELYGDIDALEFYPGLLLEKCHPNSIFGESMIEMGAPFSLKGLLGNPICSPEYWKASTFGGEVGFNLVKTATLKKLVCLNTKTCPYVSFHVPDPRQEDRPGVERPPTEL
Readout Name: IC50 (µM)
Record the value in µM, omitting the unit from your answer.

Given Smiles: O=C(Nc1ccccc1)Nc1nnc(-c2ccccc2)o1
IC50, µM: 6.87

// IC50 lookup, key: Oc1ccc(-c2nnc(CSc3nnc(-c4ccncc4)o3)o2)cc1
7.96

Same read-out for O=[N+]([O-])c1ccc(/C=N/Nc2nnc(-c3ccncc3)o2)cc1 ?
9.87

Same read-out for O=[N+]([O-])c1ccc(/C=N/c2nnc(-c3ccc(Cl)cc3)o2)cc1 ?
12

Same read-out for Clc1ccc(-c2nnc(CSc3nnc(-c4ccncc4)o3)o2)cc1 ?
6.84

Same read-out for CCO/C=N/c1nnc(-c2ccc(Cl)cc2)o1 ?
15.4

###

test system: UO-31; assay: Antiproliferative against human UO31 cells incubated for 24 hrs by MTT assay; format: functional, cell-based; conditions: UO-31, 24 h
pIC50: −log10 of the molar value.
Hi, to clarify the labels: 1 (yes) covers pIC50 from 8 upward, 0 (no) covers anything below 8.

Examples from the recorded data:
Given Smiles: O=C(Nc1ccccc1)Nc1nnc(-c2cccnc2)o1
Target Desc: UO-31
Label Value: 1 (yes)
//
Given Smiles: Clc1ccc(/C=N/c2nnc(-c3ccc(Cl)cc3)o2)cc1
Target Desc: UO-31
Label Value: 0 (no)
//
Given Smiles: CCO/C=N/c1nnc(-c2ccc(Cl)cc2)o1
Target Desc: UO-31
Label Value: 0 (no)
//
Given Smiles: O=C(Nc1ccccc1)Nc1nnc(-c2ccccc2)o1
Target Desc: UO-31
Label Value: 0 (no)
//
Given Smiles: Brc1ccc(-c2nnc(CSc3nnc(-c4ccncc4)o3)o2)cc1
Target Desc: UO-31
Label Value: 0 (no)

Shift focus to the following entry.
Please check the record CCO/C=N/c1nnc(-c2cccnc2)o1 and state if its pIC50 is at or above 8.
0 (no)

###

Biological target: Prostaglandin G/H synthase 1 (Ovis aries)
Sequence (P05979 whole entry): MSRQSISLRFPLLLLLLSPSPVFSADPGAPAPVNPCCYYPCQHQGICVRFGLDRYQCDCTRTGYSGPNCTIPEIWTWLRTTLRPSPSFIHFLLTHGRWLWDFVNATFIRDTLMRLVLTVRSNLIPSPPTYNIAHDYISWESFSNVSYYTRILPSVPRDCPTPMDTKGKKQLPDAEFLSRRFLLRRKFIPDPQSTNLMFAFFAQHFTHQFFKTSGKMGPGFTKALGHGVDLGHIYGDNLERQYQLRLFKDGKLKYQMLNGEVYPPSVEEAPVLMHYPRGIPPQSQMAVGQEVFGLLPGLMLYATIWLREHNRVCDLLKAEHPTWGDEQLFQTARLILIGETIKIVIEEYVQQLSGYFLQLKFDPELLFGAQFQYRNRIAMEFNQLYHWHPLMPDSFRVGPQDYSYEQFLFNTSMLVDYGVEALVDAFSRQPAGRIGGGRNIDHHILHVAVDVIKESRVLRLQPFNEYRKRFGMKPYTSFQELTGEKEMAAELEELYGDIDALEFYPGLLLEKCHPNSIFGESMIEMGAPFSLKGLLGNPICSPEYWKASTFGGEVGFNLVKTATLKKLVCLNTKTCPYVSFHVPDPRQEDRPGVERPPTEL
Readout Name: pIC50
Schema: pIC50 number; meaning minus log10 of the concentration expressed in molar units.

Given Smiles: Clc1ccc(/C=N/c2nnc(-c3ccccc3)o2)cc1
Target Desc: Prostaglandin G/H synthase 1 (Ovis aries)
pIC50: 4.94
--
Given Smiles: C(=N\Nc1nnc(-c2ccncc2)o1)/c1ccccc1
Target Desc: Prostaglandin G/H synthase 1 (Ovis aries)
pIC50: 4.98
--
Given Smiles: Brc1ccc(/C=N/Nc2nnc(-c3ccncc3)o2)cc1
Target Desc: Prostaglandin G/H synthase 1 (Ovis aries)
pIC50: 5.24
--
Given Smiles: Clc1ccc(/C=N/c2nnc(-c3ccc(Cl)cc3)o2)cc1
Target Desc: Prostaglandin G/H synthase 1 (Ovis aries)
pIC50: 5.27
--
Given Smiles: O=C(CSc1nnc(-c2ccncc2)o1)N/N=C/c1ccc([N+](=O)[O-])cc1
Target Desc: Prostaglandin G/H synthase 1 (Ovis aries)
pIC50: 5.35

// pIC50 lookup, key: O=C(CSc1nnc(-c2ccncc2)o1)N/N=C/c1ccc(Cl)cc1
5.17

###

Reported pIC50 values follow for various compounds
system: UO-31; assay: Antiproliferative against human UO31 cells incubated for 24 hrs by MTT assay; assay type: functional, cell-based; settings: UO-31, 24 h
Schema: pIC50 number; meaning minus log10 of the concentration expressed in molar units.

Reference set (2 entries):
Given Smiles: Clc1ccc(/C=N/c2nnc(-c3cccnc3)o2)cc1
Observed Measurement: 7.87

Given Smiles: O=[N+]([O-])c1ccc(/C=N/Nc2nnc(-c3ccncc3)o2)cc1
Observed Measurement: 8.07

Kindly consider the entry below.
// pIC50 lookup, key: COc1cccc2c1C(=O)c1c(O)c3c(c(O)c1C2=O)C[C@@](O)(C(=O)CO)C[C@@H]3O[C@H]1C[C@H](N)[C@H](O)[C@H](C)O1
8.13
